This collection of values is drawn from patent US20030055023A1.

assay: Solubility of etomidate; format: physicochemical; settings: aqueous buffer; 0.025 M phosphate buffer at pH 7.0
Measured Parameter: solubility

INSERT INTO measurements (compound, measured_parameter, test_result) VALUES
  ('CCOC(=O)c1cncn1[C@H](C)c1ccccc1 [Etomidate]', 'solubility', '~450 µg/mL');

* * *

Assay: Solubility of etomidate
Format: physicochemical
Settings: aqueous buffer; 25mM phosphate buffer, pH 7.4
Text: . […] . No. 4,289,783 to Mesens). By “therapeutic agent/SAE-CD complex” is generally meant a clathrate or inclusion complex of a sulfoalkyl ether cyclodextrin derivative of the formula (1) and a therapeutic agent. By “complexed” is meant “being part of a clathrate or inclusion complex with”, i.e., a complexed therapeutic agent is part of a clathrate or inclusion complex with a sulfoalkyl ether cyclodextrin derivative. […]
Measured Parameter: solubility

INSERT INTO results (compound, test_result) VALUES
  ('CCOC(=O)c1cncn1[C@H](C)c1ccccc1 [Etomidate]', '0.45 mg/mL');
